- Tested on: Plasmodium berghei
- Protocol text: Luciferase/luciferin-expressing antifolate-resistant parasites were used to infect a culture of HepG2 cells that were pre-incubated with compounds. Infected hepatocytes emit light due to the luciferase reaction. Assay results are presented as the percent inhibition of light emission compared to control. […]
- Format: functional
- Measurement setup: sporozoite, read-out: LUCIFERASE INFECTION ASSAY - IC50

{"columns": ["Smiles repr", "Target or test system", "IC50"],
 "data": [
  ["O=c1nc(Nc2cccc(C(F)(F)F)c2)[nH]nc1Cc1ccccc1", "Plasmodium berghei", "1.23 µM"],
  ["Cc1cc(=O)nc(N/N=C2/CCc3ccccc3C2)[nH]1", "Plasmodium berghei", "5.6 µM"],
  ["CC(C)c1ccc(N/N=C/c2cc(C#Cc3ccccc3)cs2)cc1", "Plasmodium berghei", "> 9.58 µM"],
  ["O=C(OCC(=O)C12CC3CC(CC(C3)C1)C2)c1cc2ccccc2cc1O", "Plasmodium berghei", "> 10 µM"],
  ["COC(=O)c1c(C)[nH]c(-c2csc(N3CCCCC3)n2)c1C", "Plasmodium berghei", "> 10 µM"],
  ["CCCN(CC(=O)Nc1cc(Cl)ccc1Cl)CC(=O)Nc1sccc1C(N)=O", "Plasmodium berghei", "> 10 µM"]
]}

* * *

- Tested on: Plasmodium berghei
- Protocol text: Luciferase/luciferin-expressing antifolate-resistant parasites were used to infect a culture of HepG2 cells that were pre-incubated with compounds. Infected hepatocytes emit light due to the luciferase reaction. Assay results are presented as the percent inhibition of light emission compared to control. […]
- Assay type: functional
- Measurement setup: sporozoite, HEPG2TOX_HILL_SLOPE 15.4, HEPG2TOX_R_SQUARED 0.86, PBLUC_HILL_SLOPE 4.59, PBLUC_R_SQUARED 0.756, read-out: LUCIFERASE INFECTION ASSAY - IC50
Endpoint label: IC50

{"columns": ["Compound", "Target or test system", "Endpoint label", "Test value"],
 "data": [
  ["COc1ccc(CC(N)c2csc(NC(=O)C(c3ccccc3)c3ccccc3)n2)cc1 (stereo unspecified)", "Plasmodium berghei", "IC50", "3.59 µM"]
]}

* * *

- System: Plasmodium berghei
- Protocol text: Luciferase/luciferin-expressing antifolate-resistant parasites were used to infect a culture of HepG2 cells that were pre-incubated with compounds. Infected hepatocytes emit light due to the luciferase reaction. Assay results are presented as the percent inhibition of light emission compared to control. […]
- Format: functional
- Measurement setup: sporozoite, HEPG2TOX_HILL_SLOPE 0.394, HEPG2TOX_R_SQUARED 0.0907, read-out: LUCIFERASE INFECTION ASSAY - IC50
pIC50: −log10 of the molar value.

{"columns": ["Compound", "pIC50"],
 "data": [
  ["CC(Sc1nc2scc(-c3ccccc3)c2c(=O)n1C)c1ccccc1 (stereo unspecified)", "< 5.00"]
]}

* * *

- Test system: Plasmodium berghei
- Protocol text: Luciferase/luciferin-expressing antifolate-resistant parasites were used to infect a culture of HepG2 cells that were pre-incubated with compounds. Infected hepatocytes emit light due to the luciferase reaction. Assay results are presented as the percent inhibition of light emission compared to control. […]
- Assay type: functional
- Measurement setup: sporozoite, HEPG2TOX_HILL_SLOPE 9.28, HEPG2TOX_R_SQUARED 0.884, PBLUC_HILL_SLOPE 1.82, PBLUC_R_SQUARED 0.761, read-out: LUCIFERASE INFECTION ASSAY - IC50
pIC50: −log10 of the molar value.

{"columns": ["Smiles repr", "Target or test system", "pIC50"],
 "data": [
  ["Cc1cc(/C=C(\\C#N)c2nc3ccccc3[nH]2)c(C)n1-c1cc(C(F)(F)F)ccc1Cl", "Plasmodium berghei", 5.82]
]}

* * *

- System: Plasmodium berghei
- Protocol text: Luciferase/luciferin-expressing antifolate-resistant parasites were used to infect a culture of HepG2 cells that were pre-incubated with compounds. Infected hepatocytes emit light due to the luciferase reaction. Assay results are presented as the percent inhibition of light emission compared to control. […]
- Assay type: functional
- Measurement setup: sporozoite, PBLUC_HILL_SLOPE 1.19, PBLUC_R_SQUARED 0.428, read-out: LUCIFERASE INFECTION ASSAY - IC50
pIC50: −log10 of the molar value.
Endpoint label: pIC50

{"columns": ["Smiles repr", "Endpoint label", "Test value"],
 "data": [
  ["CC1(C)CC(=O)C=C(Nc2ccc(Oc3ccccc3)cc2)C1", "pIC50", 5.66]
]}

* * *

- Test system: Plasmodium berghei
- Protocol text: Luciferase/luciferin-expressing antifolate-resistant parasites were used to infect a culture of HepG2 cells that were pre-incubated with compounds. Infected hepatocytes emit light due to the luciferase reaction. Assay results are presented as the percent inhibition of light emission compared to control. […]
- Format: functional
- Measurement setup: sporozoite, PBLUC_HILL_SLOPE 2.29, PBLUC_R_SQUARED 0.419, read-out: LUCIFERASE INFECTION ASSAY - IC50
pIC50: −log10 of the molar value.

{"columns": ["Smiles repr", "pIC50"],
 "data": [
  ["Cc1cc2ccccn2c1C(=O)c1cccc2nc3ccccc3nc12", 5.14]
]}

* * *

- Test system: Plasmodium berghei
- Protocol text: Luciferase/luciferin-expressing antifolate-resistant parasites were used to infect a culture of HepG2 cells that were pre-incubated with compounds. Infected hepatocytes emit light due to the luciferase reaction. Assay results are presented as the percent inhibition of light emission compared to control. […]
- Type: functional
- Measurement setup: sporozoite, HEPG2TOX_HILL_SLOPE 10.3, HEPG2TOX_R_SQUARED 0.526, PBLUC_HILL_SLOPE 13.6, PBLUC_R_SQUARED 0.613, read-out: LUCIFERASE INFECTION ASSAY - IC50
Endpoint label: IC50 (µM)

{"columns": ["Smiles repr", "Target or test system", "Test value"],
 "data": [
  ["OCc1ccc(-c2cnc3ccc(-c4cncnc4)nn23)cc1", "Plasmodium berghei", 3.24]
]}

* * *

- Test system: Plasmodium berghei
- Protocol text: Luciferase/luciferin-expressing antifolate-resistant parasites were used to infect a culture of HepG2 cells that were pre-incubated with compounds. Infected hepatocytes emit light due to the luciferase reaction. Assay results are presented as the percent inhibition of light emission compared to control. […]
- Format: functional
- Measurement setup: sporozoite, HEPG2TOX_HILL_SLOPE 2.84, HEPG2TOX_R_SQUARED 0.79, PBLUC_HILL_SLOPE 2.13, PBLUC_R_SQUARED 0.686, read-out: LUCIFERASE INFECTION ASSAY - IC50
pIC50: −log10 of the molar value.

{"columns": ["Smiles repr", "pIC50"],
 "data": [
  ["COc1ccc(-c2nc(C(=O)N3CCc4ccccc43)cs2)cc1OC", 6.06]
]}

* * *

- System: Plasmodium berghei
- Protocol text: Luciferase/luciferin-expressing antifolate-resistant parasites were used to infect a culture of HepG2 cells that were pre-incubated with compounds. Infected hepatocytes emit light due to the luciferase reaction. Assay results are presented as the percent inhibition of light emission compared to control. […]
- Assay type: functional
- Measurement setup: sporozoite, PBLUC_HILL_SLOPE 4.8, PBLUC_R_SQUARED 0.508, read-out: LUCIFERASE INFECTION ASSAY - IC50
pIC50: −log10 of the molar value.
Endpoint label: pIC50

{"columns": ["Smiles repr", "Test value"],
 "data": [
  ["COc1ccccc1C(=O)NCC#Cc1cccc(C(F)(F)F)c1", 5.25]
]}

* * *

- Tested on: Plasmodium berghei
- Protocol text: Luciferase/luciferin-expressing antifolate-resistant parasites were used to infect a culture of HepG2 cells that were pre-incubated with compounds. Infected hepatocytes emit light due to the luciferase reaction. Assay results are presented as the percent inhibition of light emission compared to control. […]
- Assay type: functional
- Measurement setup: sporozoite, HEPG2TOX_HILL_SLOPE 5.65, HEPG2TOX_R_SQUARED 0.159, PBLUC_HILL_SLOPE 1.72, PBLUC_R_SQUARED 0.0547, read-out: LUCIFERASE INFECTION ASSAY - IC50
pIC50: −log10 of the molar value.

{"columns": ["Smiles repr", "Target or test system", "pIC50"],
 "data": [
  ["CCn1nnc2cc(C(=O)Nc3cccc(Cl)c3N3CCOCC3)ccc21", "Plasmodium berghei", 5.27]
]}

* * *

- System: Plasmodium berghei
- Protocol text: Luciferase/luciferin-expressing antifolate-resistant parasites were used to infect a culture of HepG2 cells that were pre-incubated with compounds. Infected hepatocytes emit light due to the luciferase reaction. Assay results are presented as the percent inhibition of light emission compared to control. […]
- Assay type: functional
- Measurement setup: sporozoite, PBLUC_HILL_SLOPE 12.9, PBLUC_R_SQUARED 0.0772, read-out: LUCIFERASE INFECTION ASSAY - IC50
pIC50: −log10 of the molar value.
Endpoint label: pIC50

{"columns": ["Compound", "Endpoint label", "Test value"],
 "data": [
  ["Clc1ccc(-c2n[nH]cc2CNCC2CN(Cc3ccccc3)CCO2)cc1 (stereo unspecified)", "pIC50", 5.02]
]}
